system: SK-MEL-28 melanoma; assay: NCI tumour cell line growth inhibition, 48 h; in the data active means GI50 below about 0.43 µM; inactive means the rest
The reply should be one of these categories: true (1) = active, false (0) = inactive

(Q) What did the test return for O=S(=O)(Nc1ccc(Br)c(Cl)c1)c1ccc(-c2cnc(C3CC3)o2)cc1 ?
(A) false (0)

(Q) What did the test return for Cc1cc(NCCN(C(C)C)C(C)C)nc(/N=C(\N)Nc2ccc(Cl)c(C(F)(F)F)c2)n1 ?
(A) true (1)

(Q) What did the test return for CCN(Cc1ccc(F)cc1)c1ccc(CO)c(F)c1 ?
(A) false (0)

(Q) What did the test return for O=C(Nc1cccc(-n2cc(-c3ccncc3)c(-c3cc(O)cc(Cl)c3)n2)c1)Nc1ccc(Cl)c(C(F)(F)F)c1 ?
(A) false (0)

(Q) What did the test return for CCCc1cc(=O)[nH]c(-n2nc(C)cc2C)n1 ?
(A) false (0)

(Q) What did the test return for CNC(=O)c1cccc2cc(Oc3ccnc4cc(OCC5(N)CC5)c(OC)cc34)ccc12 ?
(A) false (0)

(Q) What did the test return for CCOC(=O)c1c2c(n(Cc3ccc(Cl)cc3Cl)c1C)-c1nc[nH]c1C(=O)C2=O ?
(A) false (0)

(Q) What did the test return for COC1=CC(c2ccc[nH]2)=N/C1=C\c1[nH]c(C)c(C(=O)CCCCC(=O)NC(C)(C)C)c1C ?
(A) false (0)

(Q) What did the test return for N#CCCN(CCCN(CCCN(C(=O)Nc1ccccc1)c1ccccc1)C(=O)Nc1ccccc1)C(=O)Nc1ccccc1 ?
(A) false (0)

(Q) What did the test return for C=C1/C(=C\C=C2/CCC[C@]3(C)[C@@H]([C@H](C)CCCC(C)(C)O)CC[C@@H]23)C[C@@H](OC(=O)CBr)C[C@@H]1O ?
(A) false (0)

(Q) What did the test return for CC1OC(n2c3ccccc3c3c4c(c5c6ccccc6[nH]c5c32)C(=O)N(CCN[C@@H]2CCC[C@H]2N)C4=O)CC(O)C1O (some centres not stated) ?
(A) false (0)

(Q) What did the test return for Cc1ccc(-c2nc(C#N)c(S(=O)(=O)n3nc(C)cc3N)o2)cc1 ?
(A) false (0)

(Q) What did the test return for O=C(Nc1cccc(-n2cc(-c3ccncc3)c(-c3ccc(Cl)c(O)c3)n2)c1)c1ccc(N2CCOCC2)c(C(F)(F)F)c1 ?
(A) false (0)

(Q) What did the test return for COc1cc(Nc2c(C#N)cnc3cc(OCCCN4CCN(C)CC4)c(OC)cc23)c(Cl)cc1Cl ?
(A) false (0)

(Q) What did the test return for CCOC(=O)c1cc2c(n1Cc1cccc(OC)c1)-c1oncc1CCC2 ?
(A) false (0)

(Q) What did the test return for COC1/C=C/C(C)C(C(C)C(OC)C(C)CCC(=O)C(C)C(C/C=C/N(C)C=O)OC)OC(=O)/C=C/C=C(\C)CC(OC)CC2=CC(=O)O[C@H](C2)C(C)C(OC)CC(OC)/C=C/C(C)C(OC)C1 (some centres not stated) ?
(A) true (1)

(Q) What did the test return for COc1ccc(-c2nc(/C=N/Nc3cc(C)nc4ccc(Cl)cc34)c(C)o2)cc1 ?
(A) false (0)

----------
tested on: OVCAR-8 ovarian; assay: NCI tumour cell line growth inhibition, 48 h
MEASURED METRIC: TGI

(Q) Could you please provide reported TGI for CCC12CCCN(Cc3ccccc3)C1c1c(n(C)c3ccccc13)C(C(=O)OC)C2 (centres undefined) ? Thanks!
(A) > 239 µM

(Q) Could you please provide reported TGI for CC12CC3OC(=O)C1COC14OC5(C2C1=O)C(O)(CCC1C4CC(O)C2(O)CC=CC(=O)C12C)C(=O)OC35C (centres undefined) ? Thanks!
(A) > 100 µM

(Q) Could you please provide reported TGI for COc1ccc(N=Cc2ccc(N(CCC#N)S(=O)(=O)c3ccccc3)cc2)cc1 ? Thanks!
(A) > 100 µM

(Q) Could you please provide reported TGI for Cc1ccccc1C(=O)N/N=C/c1ccc(Sc2nccn2C)c([N+](=O)[O-])c1 ? Thanks!
(A) > 100 µM

(Q) Could you please provide reported TGI for COc1ccc(/C=C/C(=O)c2ccc(O)c(CN3CCN(c4cc5c(cc4F)c(=O)c(C(=O)O)cn5C4CC4)CC3)c2)cc1 ? Thanks!
(A) > 100 µM

(Q) Could you please provide reported TGI for C/C=C\C(CC(=O)NCCC1CN(S(=O)(=O)c2ccc(C)cc2)c2ccccc21)CC(=O)OC (centres undefined) ? Thanks!
(A) > 100 µM

(Q) Could you please provide reported TGI for COc1ccc(C(=O)c2sc(Nc3ccc(Cl)cc3)nc2N)cc1 ? Thanks!
(A) > 100 µM

(Q) Could you please provide reported TGI for NC(=O)c1cc2ccc(O)cc2oc1=Nc1ccccc1 ? Thanks!
(A) > 100 µM

(Q) Could you please provide reported TGI for COC(=O)c1sc(=S)sc1SCc1ccc(CSc2sc(=S)sc2C(=O)OC)cc1 ? Thanks!
(A) > 100 µM

(Q) Could you please provide reported TGI for O=C(N/C(=C/c1ccc(Cl)cc1Cl)c1nc2ccccc2s1)c1ccccc1 ? Thanks!
(A) 47.4 µM

(Q) Could you please provide reported TGI for O=C(O/C(=C(/N=Nc1ccccc1)c1ccccc1)c1ccccc1)c1ccccc1 ? Thanks!
(A) > 100 µM

(Q) Could you please provide reported TGI for O=C(CCCN1CCC2(CC1)CC(=O)N(N1CCCCCC1)C2=O)c1ccccc1 ? Thanks!
(A) > 100 µM

(Q) Could you please provide reported TGI for COc1cc2c3c(n(CCCCN)c(=O)c2cc1OC)-c1cc2c(cc1C3=O)OCO2 ? Thanks!
(A) 13.1 µM

(Q) Could you please provide reported TGI for C1=CC=C2NCCCCCCCNC3=CC=CC=CC3=NCCCCCCCN=C2C=C1 ? Thanks!
(A) > 100 µM

(Q) Could you please provide reported TGI for COC(=O)c1ccccc1OCc1cc(=O)oc2ccc(C)cc12 ? Thanks!
(A) > 100 µM

(Q) Could you please provide reported TGI for Clc1ccc(N=Nc2nc3ccccc3nc2N=Nc2ccc(Cl)cc2Cl)c(Cl)c1 ? Thanks!
(A) > 100 µM

(Q) Could you please provide reported TGI for O=C(O)c1cc2ccc3ccccc3c2oc1=O ? Thanks!
(A) > 100 µM

(Q) Could you please provide reported TGI for Brc1cc(CCOC2CCCCO2)c(-c2sccc2CCOC2CCCCO2)s1 (centres undefined) ? Thanks!
(A) > 100 µM

(Q) Could you please provide reported TGI for CC(=O)OCC1OC(c2nc3ccccc3s2)=CC(OC(C)=O)C1OC(C)=O (centres undefined) ? Thanks!
(A) > 100 µM

(Q) Could you please provide reported TGI for COc1ccc(-n2c(=O)[nH]n(C(C)=O)c2=O)cc1 ? Thanks!
(A) > 100 µM

(Q) Could you please provide reported TGI for [N-]=[N+]=CC(=O)c1ccccc1C#CCCc1ccccc1 ? Thanks!
(A) > 100 µM

(Q) Could you please provide reported TGI for N#C/C(c1nc2ccccc2[nH]1)=c1\s/c(=C/c2ccc(Cl)cc2)c(=O)n1-c1ccccc1 ? Thanks!
(A) > 100 µM

(Q) Could you please provide reported TGI for CN1CNc2nc(N)n(C)c(=O)c2C1 ? Thanks!
(A) > 10 µM

(Q) Could you please provide reported TGI for O=C1CSC(c2ccc([N+](=O)[O-])cc2)N1c1ccc(-n2c(-c3ccccc3)nc3ccccc3c2=O)cc1 (centres undefined) ? Thanks!
(A) > 100 µM

(Q) Could you please provide reported TGI for Cc1cc(NCCN(C(C)C)C(C)C)nc(/N=C(\N)Nc2ccc(Cl)c(C(F)(F)F)c2)n1 ? Thanks!
(A) 0.812 µM

(Q) Could you please provide reported TGI for C(=N\NC1=NCCN1)/c1ccc(-c2cn3cc(/C=N/NC4=NCCN4)ccc3n2)cc1 ? Thanks!
(A) > 55 µM

(Q) Could you please provide reported TGI for Cc1cc(NCCCCCCNc2cc(C)nc3cc(N(C)C)ccc23)c2ccc(N(C)C)cc2n1 ? Thanks!
(A) > 100 µM

(Q) Could you please provide reported TGI for O=C1C2C3C=C4c5ccccc5N(c5ccccc5)C4(C2C(=O)N1c1ccc(Cl)cc1)[C@H]1C(=O)N(c2ccc(Cl)cc2)C(=O)[C@@H]31 (some centres undefined) ? Thanks!
(A) > 100 µM

(Q) Could you please provide reported TGI for Clc1cc2c(cc1Cl)CC(NCCN1CCCC1)CC2 (centres undefined) ? Thanks!
(A) 31.1 µM

(Q) Could you please provide reported TGI for COc1ccc2c(c1)[nH]c1c(/C=C/c3ccccc3)nccc12 ? Thanks!
(A) 42.2 µM

(Q) Could you please provide reported TGI for O=c1[nH]nc2ccccc2c1Cc1ccccc1 ? Thanks!
(A) > 100 µM

(Q) Could you please provide reported TGI for Nc1nc(SCc2ccc([N+](=O)[O-])cc2)nc2c1ncn2C1OC(CO)C(O)C1O (centres undefined) ? Thanks!
(A) > 100 µM

(Q) Could you please provide reported TGI for N#Cc1c(-c2ccc([N+](=O)[O-])cc2)c(C#N)c(=O)n(NS(=O)(=O)c2ccccc2)c1-c1ccccc1 ? Thanks!
(A) > 100 µM

(Q) Could you please provide reported TGI for COC(=O)CNS(=O)(=O)c1ccc(-c2c3nc(c(-c4ccc(S(=O)(=O)NCC(=O)OC)cc4)c4ccc([nH]4)c(-c4ccc(S(=O)(=O)NCC(=O)OC)cc4)c4nc(c(-c5ccc(S(=O)(=O)NCC(=O)OC)cc5)c5ccc2[nH]5)C=C4)C=C3)cc1 ? Thanks!
(A) > 100 µM

(Q) Could you please provide reported TGI for CC(C)(C)c1cc(C2=NNC(c3ccccc3)C2)cc(C(C)(C)C)c1O (centres undefined) ? Thanks!
(A) 31.7 µM

(Q) Could you please provide reported TGI for O=[N+]([O-])c1ccc2c(c1)Cc1cc(N=Cc3ccc4c(c3)OCO4)ccc1-2 ? Thanks!
(A) > 100 µM

(Q) Could you please provide reported TGI for O=C1C(N2CC2)=C(N2CC2)C(=O)C(N2CC2)=C1N1CC1 ? Thanks!
(A) 6.99 µM

(Q) Could you please provide reported TGI for CC(=O)C(=Cc1ccc(C=C(C(C)=O)C(C)=O)cc1)C(C)=O ? Thanks!
(A) 14.6 µM

(Q) Could you please provide reported TGI for O=c1c2nc3ccccc3c(=O)n2ncn1-c1ccccc1Cl ? Thanks!
(A) > 100 µM

Origin of values: PubChem BioAssay (NCI)
